Reference source for all entries: patent US8796314B2

Exercise: state measured IC50 for each of the compounds provided.

Problem: Checklist item: IC50 tested on PI3Kalpha (Homo sapiens, UniProt P42336), entry CNC(=O)c1cc(-c2sc(-c3nnc[nH]3)c(-c3ccc(Cl)cc3Cl)c2C#N)ccn1 [Compound 44] , value?
Result: > 1 µM

Problem: Checklist item: IC50 tested on PI3Kalpha (Homo sapiens, UniProt P42336), entry COc1cc(-c2sc(-c3nnc[nH]3)c(-c3ccc(Cl)cc3Cl)c2C#N)ccn1 [Compound 24] , value?
Result: > 1 µM

Problem: Checklist item: IC50 tested on PI3Kalpha (Homo sapiens, UniProt P42336), entry CNc1cc(-c2cc(-c3ccc(Cl)cc3Cl)c(-c3ncc[nH]3)s2)ncn1 [Compound 84] , value?
Result: > 1 µM

Problem: Checklist item: IC50 tested on PI3Kalpha (Homo sapiens, UniProt P42336), entry CS(=O)(=O)Nc1cc(-c2sc(-c3nnc[nH]3)c(-c3ccc(Cl)cc3Cl)c2C#N)ccn1 [Compound 4] , value?
Result: > 1 µM

Problem: Checklist item: IC50 tested on PI3Kalpha (Homo sapiens, UniProt P42336), entry N#Cc1c(-c2ccnc(N)c2)sc(-c2cnc[nH]2)c1-c1ccc(Cl)cc1Cl [Compound 80] , value?
Result: < 0.1 µM

Problem: Checklist item: IC50 tested on PI3Kalpha (Homo sapiens, UniProt P42336), entry CNc1nccc(-c2sc(-c3ncc[nH]3)c(-c3ccc(Cl)cc3Cl)c2C#N)n1 [Compound 16] , value?
Result: < 0.1 µM
